Study target: Histone-arginine methyltransferase CARM1 (Homo sapiens)
Sequence (Q86X55 whole entry): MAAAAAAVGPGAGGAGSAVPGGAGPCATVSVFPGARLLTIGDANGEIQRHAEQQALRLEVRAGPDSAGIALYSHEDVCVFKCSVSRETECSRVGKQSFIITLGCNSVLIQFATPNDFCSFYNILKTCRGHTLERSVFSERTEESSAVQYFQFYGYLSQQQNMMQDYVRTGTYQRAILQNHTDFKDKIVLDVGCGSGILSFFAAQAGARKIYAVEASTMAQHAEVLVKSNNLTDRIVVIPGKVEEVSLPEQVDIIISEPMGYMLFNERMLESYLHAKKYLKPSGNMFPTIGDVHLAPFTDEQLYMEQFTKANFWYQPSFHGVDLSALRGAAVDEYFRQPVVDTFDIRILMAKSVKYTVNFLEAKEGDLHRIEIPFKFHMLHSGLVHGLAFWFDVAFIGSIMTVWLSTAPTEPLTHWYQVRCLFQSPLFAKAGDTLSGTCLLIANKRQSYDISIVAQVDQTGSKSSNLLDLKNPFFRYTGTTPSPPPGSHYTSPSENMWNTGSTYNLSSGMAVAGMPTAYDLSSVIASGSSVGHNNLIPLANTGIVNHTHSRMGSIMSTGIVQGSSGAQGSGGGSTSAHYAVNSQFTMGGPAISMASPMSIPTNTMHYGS
Assay summary: Inhibition of PRMT4 (unknown origin)
Quantity measured: IC50 (nM)
Numbers only; they are read as nM.

State its IC50: CC(C)Oc1ccc(-c2c[nH]cc2CNCCN)cc1
83

State its IC50: CNCCNc1cccc(-n2nc(C(F)(F)F)cc2C(=O)NCc2ccccc2OC)c1
5

====

Give half-life for every item shown.
Assay summary: Metabolic stability in human liver microsomes assessed as half life preincubated for 10 mins followed by NADPH addition measured for 60 mins by LC-MS/MS analysis
Type: ADME, Microsome
Settings: time 70 min
Numbers only; they are read as min.

State its half-life: CNCCN1CCC(NC(=O)c2ccc3c(Nc4ccc(CN)cc4)ncnc3c2)C1 (racemic)
10.9

State its half-life: CNCCN1CC[C@@H](NC(=O)c2ccc3c(Nc4ccc(CN)cc4)ncnc3c2)C1
23

====

Study target: Protein arginine N-methyltransferase 8 (Homo sapiens)
Sequence (Q9NR22 whole entry): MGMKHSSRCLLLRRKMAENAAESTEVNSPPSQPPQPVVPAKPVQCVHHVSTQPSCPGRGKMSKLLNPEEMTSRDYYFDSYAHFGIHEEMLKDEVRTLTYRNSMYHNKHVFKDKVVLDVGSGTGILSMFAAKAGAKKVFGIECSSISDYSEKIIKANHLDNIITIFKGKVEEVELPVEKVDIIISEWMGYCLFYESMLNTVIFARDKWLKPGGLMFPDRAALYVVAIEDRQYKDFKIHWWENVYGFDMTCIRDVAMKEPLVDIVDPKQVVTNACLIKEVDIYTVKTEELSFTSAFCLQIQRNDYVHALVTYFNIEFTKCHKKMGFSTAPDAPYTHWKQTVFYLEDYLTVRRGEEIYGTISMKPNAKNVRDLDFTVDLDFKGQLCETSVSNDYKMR
Assay summary: Inhibition of PRMT8 (unknown origin)
Quantity measured: pIC50
The quantity pIC50 is defined as the negative base-10 logarithm of the molar concentration.

State its pIC50: CNCCNCc1c[nH]nc1-c1ccc(O[C@H]2C[C@H](OCCC3CCCCC3)C2)cc1
6.65

State its pIC50: CC(C)Oc1ccc(-c2c[nH]cc2CNCCN)cc1
8.30

====

Give logD at 4 h for every item shown.
Assay summary: Lipophilicity, log D of compound in 1-octanol at pH 7.4 incubated for 4 hrs by HPLC-UV analysis
Format: physicochemical
Settings: 1-octanol/aqueous phase
# answer = number (no unit)

State its logD at 4 h: CNCCN1CCC(NC(=O)c2ccc3c(Nc4ccc(CN)cc4)ncnc3c2)C1 (racemic)
-2.16

State its logD at 4 h: CNCCN1CC[C@@H](NC(=O)c2ccc3c(Nc4ccc(CN)cc4)ncnc3c2)C1
-2.27

State its logD at 4 h: COCCc1ccc(OCC(O)CNC(C)C)cc1 (stereo not drawn)
-0.28

====

Study target: Protein arginine N-methyltransferase 3 (Homo sapiens)
Sequence (O60678 whole entry): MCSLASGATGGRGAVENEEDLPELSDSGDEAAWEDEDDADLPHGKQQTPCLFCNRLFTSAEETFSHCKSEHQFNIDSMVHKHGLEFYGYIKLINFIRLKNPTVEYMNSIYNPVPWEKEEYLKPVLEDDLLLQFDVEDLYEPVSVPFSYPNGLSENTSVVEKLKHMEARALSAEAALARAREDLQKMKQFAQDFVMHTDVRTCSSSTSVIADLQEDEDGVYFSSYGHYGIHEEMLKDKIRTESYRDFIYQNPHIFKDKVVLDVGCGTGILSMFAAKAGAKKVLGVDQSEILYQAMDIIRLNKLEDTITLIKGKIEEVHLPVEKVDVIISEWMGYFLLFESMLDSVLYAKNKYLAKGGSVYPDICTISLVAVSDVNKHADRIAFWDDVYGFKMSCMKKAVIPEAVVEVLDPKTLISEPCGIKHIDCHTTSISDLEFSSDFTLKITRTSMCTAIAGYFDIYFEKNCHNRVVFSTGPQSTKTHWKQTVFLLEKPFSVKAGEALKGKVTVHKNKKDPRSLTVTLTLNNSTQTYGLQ
Assay summary: Displacement of 3H-SAM from human PRMT3 in presence of substrate by SPA assay
Give IC50 for every item shown.
Numbers only; they are read as mM.

State its IC50: CNCCN1CC[C@H](NC(=O)c2ccc3c(Nc4ccc(CN)cc4)ncnc3c2)C1
1.39

State its IC50: CNCCN1CC[C@@H](NC(=O)c2ccc3c(Nc4ccc(CN)cc4)ncnc3c2)C1
3.57

State its IC50: CNCCN1CCC(NC(=O)c2ccc3c(Nc4ccc(CN)cc4)ncnc3c2)C1 (racemic)
3.12

====

Assay summary: Stability in human plasma assessed as compound remaining measured after 2 hrs by LC-MS/MS analysis
Format: ADME, cell-free
Settings: read-out: Stability
Quantity measured: remaining at 2 h (%)
Numbers only; they are read as %.

State its remaining at 2 h: CNCCN1CC[C@@H](NC(=O)c2ccc3c(Nc4ccc(CN)cc4)ncnc3c2)C1
71.2

State its remaining at 2 h: CNCCN1CCC(NC(=O)c2ccc3c(Nc4ccc(CN)cc4)ncnc3c2)C1 (racemic)
91.3

====

Study target: UniProt:Q9H7B4
Sequence (Q9H7B4 whole entry): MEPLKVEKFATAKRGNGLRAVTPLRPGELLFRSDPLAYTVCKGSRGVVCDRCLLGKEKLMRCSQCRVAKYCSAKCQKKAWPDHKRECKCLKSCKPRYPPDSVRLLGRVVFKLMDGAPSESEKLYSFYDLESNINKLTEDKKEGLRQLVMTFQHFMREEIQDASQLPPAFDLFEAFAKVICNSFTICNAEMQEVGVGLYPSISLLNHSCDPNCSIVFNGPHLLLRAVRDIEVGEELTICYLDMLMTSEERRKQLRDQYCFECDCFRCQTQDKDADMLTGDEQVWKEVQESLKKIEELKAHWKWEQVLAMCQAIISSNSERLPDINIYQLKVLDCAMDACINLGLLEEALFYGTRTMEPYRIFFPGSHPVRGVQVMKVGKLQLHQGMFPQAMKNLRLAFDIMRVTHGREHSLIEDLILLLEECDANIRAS
Give IC50 for every item shown.

State its IC50: NC1CCN(c2ncnc3cc(C(=O)NCCN4CCNCC4)ccc23)CC1
> 200 µM

State its IC50: NCc1ccc(Nc2ncnc3cc(C(=O)N4CCC(N)C4)ccc23)cc1 (stereo not drawn)
> 200 µM

State its IC50: NCc1ccc(Nc2ncnc3cc(C(=O)NC4CCNCC4)ccc23)cc1
> 100 µM
